molecular target: Mitogen-activated protein kinase 1 (Homo sapiens) (UniProt P28482); assay: Inhibition of ERK2 (unknown origin) at 1 uM by Z'-Lyte assay relative to control
Sequence (P28482 whole entry): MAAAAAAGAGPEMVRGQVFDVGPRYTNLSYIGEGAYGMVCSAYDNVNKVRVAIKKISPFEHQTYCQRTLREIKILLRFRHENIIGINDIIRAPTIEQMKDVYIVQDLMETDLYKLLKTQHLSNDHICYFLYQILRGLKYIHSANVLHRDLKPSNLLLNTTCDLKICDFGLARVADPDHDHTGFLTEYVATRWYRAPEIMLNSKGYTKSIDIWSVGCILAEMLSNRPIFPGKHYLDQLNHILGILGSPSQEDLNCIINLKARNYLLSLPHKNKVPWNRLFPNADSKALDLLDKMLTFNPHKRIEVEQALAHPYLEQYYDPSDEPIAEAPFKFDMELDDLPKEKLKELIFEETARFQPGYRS
A collection of compounds and their measured inhibition
valueKind: inhibition (%)

>  <chemicalStructure>
COc1ccccc1C(=O)Nc1sc2c(c1C(N)=O)CCN(C(=S)Nc1ccccc1Cl)C2

>  <endpointResult>
67.1

$$$$
>  <chemicalStructure>
Cc1ccc(C(=O)Nc2sc3c(c2C(N)=O)CCN(C(=S)Nc2ccccc2Cl)C3)cc1

>  <endpointResult>
82.8

$$$$
>  <chemicalStructure>
NC(=O)c1c(NC(=O)c2ccccc2Cl)sc2c1CCN(Cc1ccc(Cl)cc1Cl)C2

>  <endpointResult>
66.6

$$$$
>  <chemicalStructure>
Cc1ccc(C(=O)Nc2sc3c(c2C(N)=O)CCN(Cc2ccc(Cl)cc2Cl)C3)cc1

>  <endpointResult>
53.7

$$$$
>  <chemicalStructure>
NC(=O)c1c(NC(=O)c2ccccc2Cl)sc2c1CCNC2

>  <endpointResult>
64.9

$$$$
>  <chemicalStructure>
NC(=O)c1c(NC(=O)c2cccc([N+](=O)[O-])c2)sc2c1CCN(C(=S)Nc1cc(C(F)(F)F)cc(C(F)(F)F)c1)C2

>  <endpointResult>
75

$$$$
>  <chemicalStructure>
NC(=O)c1c(NC(=O)c2ccccc2Br)sc2c1CCN(C(=S)Nc1ccccc1Br)C2

>  <endpointResult>
82.1

$$$$
>  <chemicalStructure>
NC(=O)c1c(NC(=O)c2ccccc2Br)sc2c1CCN(C(=S)Nc1ccccc1F)C2

>  <endpointResult>
68.7

$$$$
>  <chemicalStructure>
NC(=O)c1c(NC(=O)c2ccc(C(F)(F)F)cc2)sc2c1CCN(Cc1ccc(Cl)cc1)C2

>  <endpointResult>
43.3

$$$$
>  <chemicalStructure>
NC(=O)c1c(NC(=O)c2ccccc2Cl)sc2c1CCN(C(=S)Nc1ccccc1-c1ccccc1)C2

>  <endpointResult>
64.7

$$$$
>  <chemicalStructure>
Cc1ccccc1C(=O)Nc1sc2c(c1C(N)=O)CCN(C(=S)Nc1ccccc1C(F)(F)F)C2

>  <endpointResult>
76.9

$$$$
>  <chemicalStructure>
NC(=O)c1c(NC(=O)c2ccc[nH]2)sc2c1CCN(C(=S)Nc1cccnc1)C2

>  <endpointResult>
79.7

$$$$
>  <chemicalStructure>
COc1ccccc1NC(=S)N1CCc2c(sc(NC(=O)c3ccccc3C(F)(F)F)c2C(N)=O)C1

>  <endpointResult>
74.9

$$$$
>  <chemicalStructure>
O=C(Nc1ccc2[nH]nc(-c3ccncc3)c2c1)[C@@H]1CCN(CC(=O)N2CCN(c3ccc(-c4ncccn4)cc3)CC2)C1

>  <endpointResult>
99.2

$$$$
>  <chemicalStructure>
NC(=O)c1c(NC(=O)c2ccccc2Cl)sc2c1CCN(C(=S)Nc1cccnc1)C2

>  <endpointResult>
45.4

$$$$

====

A collection of molecules and their measured inhibition
target: Mitogen-activated protein kinase 3 (Homo sapiens) (UniProt P27361); test: Inhibition of ERK1 (unknown origin) at 1 uM by Z'-Lyte assay relative to control
Sequence (P27361 whole entry): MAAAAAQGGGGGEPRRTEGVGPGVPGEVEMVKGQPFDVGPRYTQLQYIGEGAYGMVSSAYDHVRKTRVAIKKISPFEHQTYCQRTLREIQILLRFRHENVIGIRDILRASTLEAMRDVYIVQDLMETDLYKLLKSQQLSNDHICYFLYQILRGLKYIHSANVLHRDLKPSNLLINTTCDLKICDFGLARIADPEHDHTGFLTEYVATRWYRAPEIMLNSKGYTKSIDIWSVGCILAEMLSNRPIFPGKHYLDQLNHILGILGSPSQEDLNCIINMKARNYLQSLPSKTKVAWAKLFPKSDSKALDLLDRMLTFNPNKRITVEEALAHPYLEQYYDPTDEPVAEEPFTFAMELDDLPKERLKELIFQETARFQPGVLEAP
valueKind: inhibition

>  <chemicalStructure>
NC(=O)c1c(NC(=O)c2ccccc2Cl)sc2c1CCN(Cc1ccccc1F)C2

>  <testSystem>
Mitogen-activated protein kinase 3 (Homo sapiens) (UniProt P27361)

>  <endpointResult>
68.3%

$$$$
>  <chemicalStructure>
Cc1ccccc1C(=O)Nc1sc2c(c1C(N)=O)CCN(C(=S)Nc1ccccc1C(F)(F)F)C2

>  <testSystem>
Mitogen-activated protein kinase 3 (Homo sapiens) (UniProt P27361)

>  <endpointResult>
72%

$$$$
>  <chemicalStructure>
NC(=O)c1c(NC(=O)c2ccccc2Br)sc2c1CCN(C(=S)Nc1ccccc1F)C2

>  <testSystem>
Mitogen-activated protein kinase 3 (Homo sapiens) (UniProt P27361)

>  <endpointResult>
70.1%

$$$$

====

target: Mitogen-activated protein kinase 7 (Homo sapiens); test: Inhibition of ERK5 (unknown origin) at 1 uM by Z'-Lyte assay relative to control
Label rule, in plain words: inhibition of 60% and up is Fulfilled, under 60% is Not fulfilled.

>  <chemicalStructure>
O=C(Nc1ccc2[nH]nc(-c3ccncc3)c2c1)[C@@H]1CCN(CC(=O)N2CCN(c3ccc(-c4ncccn4)cc3)CC2)C1

>  <testSystem>
Mitogen-activated protein kinase 7 (Homo sapiens)

>  <labelValue>
Not fulfilled

$$$$
>  <chemicalStructure>
Cc1ccc(C(=O)Nc2sc3c(c2C(N)=O)CCN(C(=S)Nc2cc(C(F)(F)F)cc(C(F)(F)F)c2)C3)cc1

>  <testSystem>
Mitogen-activated protein kinase 7 (Homo sapiens)

>  <labelValue>
Fulfilled

$$$$
>  <chemicalStructure>
COc1ccccc1NC(=S)N1CCc2c(sc(NC(=O)c3ccccc3Cl)c2C(N)=O)C1

>  <testSystem>
Mitogen-activated protein kinase 7 (Homo sapiens)

>  <labelValue>
Not fulfilled

$$$$
>  <chemicalStructure>
NC(=O)c1c(NC(=O)c2ccccc2F)sc2c1CCN(C(=O)Nc1ccccc1Cl)C2

>  <testSystem>
Mitogen-activated protein kinase 7 (Homo sapiens)

>  <labelValue>
Not fulfilled

$$$$
>  <chemicalStructure>
Cc1ccccc1NC(=S)N1CCc2c(sc(NC(=O)c3ccccc3C(F)(F)F)c2C(N)=O)C1

>  <testSystem>
Mitogen-activated protein kinase 7 (Homo sapiens)

>  <labelValue>
Not fulfilled

$$$$
>  <chemicalStructure>
NC(=O)c1c(NC(=O)c2ccccc2Cl)sc2c1CCN(Cc1ccccc1)C2

>  <testSystem>
Mitogen-activated protein kinase 7 (Homo sapiens)

>  <labelValue>
Fulfilled

$$$$

====

biological target: Mitogen-activated protein kinase 7 (Homo sapiens) (UniProt Q13164); assay: Inhibition of ERK5 (unknown origin) at 1 uM by Z'-Lyte assay relative to control
Sequence (Q13164 2-816 limits assumed): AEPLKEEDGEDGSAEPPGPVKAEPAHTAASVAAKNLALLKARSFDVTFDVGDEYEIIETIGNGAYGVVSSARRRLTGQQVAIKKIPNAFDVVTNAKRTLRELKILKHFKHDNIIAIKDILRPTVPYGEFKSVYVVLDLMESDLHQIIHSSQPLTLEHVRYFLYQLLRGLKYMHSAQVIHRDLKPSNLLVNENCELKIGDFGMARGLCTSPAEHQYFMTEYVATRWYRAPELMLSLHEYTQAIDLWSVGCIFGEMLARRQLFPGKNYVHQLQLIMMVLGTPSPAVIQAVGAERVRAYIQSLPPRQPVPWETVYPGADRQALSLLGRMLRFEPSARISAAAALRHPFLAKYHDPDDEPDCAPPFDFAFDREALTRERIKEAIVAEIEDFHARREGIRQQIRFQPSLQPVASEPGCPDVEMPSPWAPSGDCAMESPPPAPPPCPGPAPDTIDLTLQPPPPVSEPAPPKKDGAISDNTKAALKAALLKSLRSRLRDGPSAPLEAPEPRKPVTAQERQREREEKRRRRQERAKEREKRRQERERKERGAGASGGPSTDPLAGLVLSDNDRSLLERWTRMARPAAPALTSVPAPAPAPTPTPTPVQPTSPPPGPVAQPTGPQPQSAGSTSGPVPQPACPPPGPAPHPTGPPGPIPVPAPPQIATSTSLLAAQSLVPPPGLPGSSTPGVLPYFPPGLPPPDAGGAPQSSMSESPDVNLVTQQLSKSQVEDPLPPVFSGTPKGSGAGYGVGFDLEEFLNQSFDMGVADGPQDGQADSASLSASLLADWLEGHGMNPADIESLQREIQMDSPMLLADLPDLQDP

>  <chemicalStructure>
Cc1ccccc1C(=O)Nc1sc2c(c1C(N)=O)CCN(C(=S)Nc1ccccc1Br)C2

>  <inhibition / %>
54.9

$$$$
>  <chemicalStructure>
NC(=O)c1c(NC(=O)c2ccccc2C(F)(F)F)sc2c1CCN(C(=S)Nc1ccccc1Br)C2

>  <inhibition / %>
73.3

$$$$
>  <chemicalStructure>
NC(=O)c1c(NC(=O)c2ccc[nH]2)sc2c1CCN(C(=S)Nc1cccnc1)C2

>  <inhibition / %>
48.6

$$$$
>  <chemicalStructure>
NC(=O)c1c(NC(=O)c2ccccc2F)sc2c1CCN(Cc1c(Cl)cccc1Cl)C2

>  <inhibition / %>
21.1

$$$$
>  <chemicalStructure>
NC(=O)c1c(NC(=O)c2ccccc2Cl)sc2c1CCN(C(=S)Nc1cccnc1)C2

>  <inhibition / %>
34.9

$$$$
>  <chemicalStructure>
NC(=O)c1c(NC(=O)c2ccccc2Cl)sc2c1CCN(C(=O)Nc1ccccc1Cl)C2

>  <inhibition / %>
89.9

$$$$
>  <chemicalStructure>
NC(=O)c1c(NC(=O)c2ccccc2Cl)sc2c1CCN(Cc1c(Cl)cccc1Cl)C2

>  <inhibition / %>
61.9

$$$$
>  <chemicalStructure>
Cc1ccc(C(=O)Nc2sc3c(c2C(N)=O)CCN(C(=S)Nc2ccccc2Cl)C3)cc1

>  <inhibition / %>
50.4

$$$$
>  <chemicalStructure>
NC(=O)c1c(NC(=O)c2ccc(C(F)(F)F)cc2)sc2c1CCN(C(=S)Nc1ccccc1Cl)C2

>  <inhibition / %>
57.5

$$$$
>  <chemicalStructure>
NC(=O)c1c(NC(=O)c2cccc([N+](=O)[O-])c2)sc2c1CCN(C(=S)Nc1ccccc1Cl)C2

>  <inhibition / %>
70.7

$$$$
>  <chemicalStructure>
Cc1ccc(C(=O)Nc2sc3c(c2C(N)=O)CCN(Cc2ccc(Cl)cc2Cl)C3)cc1

>  <inhibition / %>
52.3

$$$$
>  <chemicalStructure>
NC(=O)c1c(NC(=O)c2ccccc2Cl)sc2c1CCN(C(=S)Nc1ccccc1Br)C2

>  <inhibition / %>
88.5

$$$$
>  <chemicalStructure>
NC(=O)c1c(NC(=O)c2ccccc2Cl)sc2c1CCN(C(=S)Nc1ccccc1)C2

>  <inhibition / %>
59.5

$$$$
>  <chemicalStructure>
Cc1ccccc1NC(=S)N1CCc2c(sc(NC(=O)c3ccccc3Br)c2C(N)=O)C1

>  <inhibition / %>
46.7

$$$$
>  <chemicalStructure>
NC(=O)c1c(NC(=O)c2ccccc2F)sc2c1CCN(C(=S)Nc1ccccc1Cl)C2

>  <inhibition / %>
65.2

$$$$

====

molecular target: Mitogen-activated protein kinase 3 (Homo sapiens); test: Inhibition of ERK1 (unknown origin) at 1 uM by Z'-Lyte assay relative to control
Label rule, in plain words: inhibition of 60% and up is criterion met, under 60% is criterion not met.

>  <chemicalStructure>
NC(=O)c1c(NC(=O)c2ccccc2Cl)sc2c1CCN(Cc1ccc(Cl)cc1Cl)C2

>  <labelValue>
criterion met

$$$$
>  <chemicalStructure>
NC(=O)c1c(NC(=O)c2ccccc2F)sc2c1CCN(Cc1cccc(Cl)c1)C2

>  <labelValue>
criterion not met

$$$$
>  <chemicalStructure>
NC(=O)c1c(NC(=O)c2ccccc2F)sc2c1CCN(C(=S)Nc1cc(C(F)(F)F)cc(C(F)(F)F)c1)C2

>  <labelValue>
criterion met

$$$$
>  <chemicalStructure>
COc1ccccc1NC(=S)N1CCc2c(sc(NC(=O)c3ccccc3I)c2C(N)=O)C1

>  <labelValue>
criterion not met

$$$$
>  <chemicalStructure>
NC(=O)c1c(NC(=O)c2cccc([N+](=O)[O-])c2)sc2c1CCN(Cc1c(Cl)cccc1Cl)C2

>  <labelValue>
criterion not met

$$$$
>  <chemicalStructure>
NC(=O)c1c(NC(=O)c2ccccc2C(F)(F)F)sc2c1CCN(C(=S)Nc1ccccc1Cl)C2

>  <labelValue>
criterion met

$$$$
>  <chemicalStructure>
COc1ccccc1NC(=S)N1CCc2c(sc(NC(=O)c3ccccc3Cl)c2C(N)=O)C1

>  <labelValue>
criterion met

$$$$

Data origin: ChEMBL document CHEMBL4342467
